- experimental_protocol: yeast display, Sf9 membrane polyspecificity reagent, FACS + sequencing; frameworks hold sequencing errors
endpoint_label: polyreactivity (PSR sort gate)

>>> value_reported("QVPLVESGGGLVQAGGSLRLSCAASGSICGGYAMGWYRQAPGKERELVAGITYSGDSTYYADSVKGRFTISRDNAKNTVYLQMNSLKPEDTAGYYCNADQRVDHDDFDYWGQGTQVTVSS")
"low polyreactivity"
>>> value_reported("QVQLVESARGLVQAGGCLRLSCAASGSTFHQNAMGWSRQAPGKERELVAAITSGGSTYYADSVKGRFTISRDNAKNTGYLQMNSLKPEDTAVYYCNALTHVRSKRWRFRSEHDYWGQGTQVTVSS")
"high polyreactivity"
>>> value_reported("QVQLVDSGGGLVQAGGSLRLSCAASGITFNLYAMGWYRQAPGKERELVAAISNVGSTKYADSVKGRFTISRDNAKNTVYLQMTSLKPEDTAVYYCAADWDRYPDYDYWGQGTQVTVSS")
"low polyreactivity"
>>> value_reported("QVQLVQSGGGLVQAGGSLRLSCAASGFTFRFYAMGWYRQATGKERELVASINWSGGRTYYADSVKGRFTISRDNAKNTVYLEMNSLKPVDTAVYYCATQYLIQTKYYSWGQGTQVTVSS")
"high polyreactivity"
>>> value_reported("QVQLVESGGGLVQAGGSLRLSCAASGFTCYNYAMGWYRQAPGKERELVAAITSSGTSTYYADSVKGRFTISRDNAKNTVYLQMNSLKPEDTAVYYCATYVAYHRGYSTYDHWGQGSQVTVSS")
"low polyreactivity"
>>> value_reported("QVQLVDSGGGLGQAGGSLRLSCAASGIIISGYAMGWYRQAPGKERELVASIRSGSNTYYADSVKGRFTISRDNAKNTVYLQKNSLNPEDTAVYYCAARVVPATFRFIRYPNTYYYWGQGSQVTVSS")
"low polyreactivity"
>>> value_reported("QVQLVESGGGLVQAGGSLRLSCAASGIIFTINAMGWYRQAPGKERELVAAISWGTGTTYYADSVKGRFTISRDNAKNTVYLQINSLKPEDTAVYYCAADGYDTYGYWGQGTQVTVSS")
"low polyreactivity"
>>> value_reported("QVQLVESGGGLVQAGGSLRLSCAASGFTFDSYAMGWYRQAPGKERELVAAMSYRGGTTYYADSVKGRFTISRDNAKNTGYLQMNSLKPEDTAVYYCNRLWKYGYNYWGQGTQVTVSS")
"high polyreactivity"
>>> value_reported("QVQLVETGGGLVQAGGSLRLSCAASGSIFVLYAMVWSRQAPGKERELVAAISKRTGSSYYADSVKGRFTISRDHAKHTVYLQTNSLKPEDTAVYYCAARGRQYRYYDLDYWGQGTQVTLSS")
"low polyreactivity"
>>> value_reported("QVQLVESGGGLVQAGGSLRLSCAASGSTFGLYAMGWYRQAPRKERELVAVIRWGSGRTYYADSVKGRFTISRDNAKNTVYLQMNSLKPEDTAVYYCAKDRSYGSSSKRFGYWGQGTQVTVSS")
"high polyreactivity"
>>> value_reported("QVQLVESGGGLVQAGGSLRLSCAASGSIFVGYTMGWYRQAPGKERELVADITYNGGTTYYADSVKGRFTISRDNAKNTVYLQMNSLKPEDSAVYYCAADYYYGWFPVYYWGQGTQVTVSS")
"high polyreactivity"
>>> value_reported("QVQLVESGGGLVQAGGSLRLICAASGYTLATYTMRWYIQAPGKERELVAAISFGGSTYYADSVKGRFTISRDNAKNTVYLQMNSLKPEDTAVYYCAVYGDSYWGAYYYSDGYWGQGTQVTVSS")
"low polyreactivity"
>>> value_reported("QVQLVESGGGLVQAGGSLRLSSAASGSTFDYYAMGWYRQAPGKERELVAAISTSGSSTYYADSVKGRFTISGDNAKNTVYLQMNSLKPEDTAVYYCAAPIRYKGGYWGQGTQVTVSS")
"low polyreactivity"
>>> value_reported("QVQLVESGGGLVQAGGSLRLSCAASGRIFAKNTMGWYRQAPGKERELVAAISRSGGRTYYADSVKGRFTISRDNAKNTVYLQMNSLKPEDTAVYYCSKDVKGSYAYDSWGQGTQVTVSS")
"high polyreactivity"
>>> value_reported("QVQLVESGGGLVQAGGSLRLSCAASGSTFYANTMGWYRTAPGKERELVAAITYGGGNTYYADSVKGRFTISRDNAKNTVYLQMNSLKPEDTAVYYCAARDYVSYYTRFDYWGQGTQVTVSS")
"high polyreactivity"
>>> value_reported("QVQLVESGGGLVQAGGSLRLSCAASGSIFRAYAMGWYRQAPGKERELVATISGSGGSTDYADSVKGRFTISRDTAKNTVYLQMNSLKPEDTAVYYCARDDPASHKRYWHDYWGQGTQVTVSS")
"low polyreactivity"
>>> value_reported("QVQLVESGGGLVQAGGSLRLSCAASGITFNTYAMGWYRHAPGKERELVAVITWSDGGTYYADSVKGRFTISRDNAKNTVYLQMNSLKPEDTAVYYCAADYDWGYDYWGQGTQVTVSS")
"low polyreactivity"
>>> value_reported("QVQLVESGGGLVQAGGSLRLSCAASGSIFPFYAMGWYRKAPGKERELVAAISDRGGSTYYADSVKGRFTISRDNAKNTVYLQMNSLKPDDTAVYYCAKGAEVSQGYTDEYDYWGQGTQVTVSS")
"low polyreactivity"
>>> value_reported("QVQLVESGGGLVQAGGSLRLSCAASGSSFGVNAMGWYRQAPGKERELVADISVRTDSTYYADSVKGRFTISRDNAKNTVYLQMNSLKPEDTAVYYCAAEVPYYYPGFYSYYDDSDYWGQGTQVTVSS")
"low polyreactivity"
>>> value_reported("QVQLVESGGGLVQAGGSLRLSCAASGSIFRSYAMGWYRQAPGKEREFVAAIRNSSGRTYYADSVKGRFTISRDNAKNTVYLQMNSLKPEDTAVYYCAARLPRTYQGGKLYRLQYSWGQGTQVTVSS")
"high polyreactivity"
>>> value_reported("QVQLVESGGGLVQAGGSLRLSCAASGRIFSWNAMGWYRQAPGKERELVARITNGGSTYYADSVKGRFTISRDNAKNTVYLQMNSLKPEDTAVYYCAAKYRYYWSSKSKGDYWGQGTQVTVSS")
"high polyreactivity"

Provenance of the data: the nanobody polyreactivity screen of Harvey et al. (2022)
